Values were extracted from paper PMC5540273.

- System: RSK2(Kin.Dom.2-C-terminal)
- Construct: gene RPS6KA3
- Test Conditions: concentration: 1 μM, replicates: in singlicate; n = 1;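 further: KINOMEscan kinase panel screen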
Quantity Measured: %Inh (%)
Note: unit % is implicit; provide only the numeric part.

CCS(=O)(=O)c1ccc(OC)c(Nc2ncc(-c3ccc(F)cc3)o2)c1.Cl    22
Cc1cccc(-c2nc(Nc3ccc4c(cnn4C)c3)c3ccccc3n2)n1    0

Next item in the queue.
Exercise: Reported %Inh for CCS(=O)c1ccc(-c2coc3ccc(-c4nnc(C)o4)cc23)cc1 (stereo not shown) : what is it?
Solution: 0

----------
- Tested on: CDKL2
- Test Conditions: concentration: 1 μM, replicates: in singlicate; n = 1
Quantity Measured: %Inh

Examples with answers:
Cc1cccc(-c2nc(Nc3ccc4c(cnn4C)c3)c3ccccc3n2)n1 [GW876731]    23%
Cc1ccc(-c2ccc3c(ccc4sc5c(c43)NC[C@@H](C)N=C5N(C)C)n2)cn1    0%
COc1cc(Nc2nccc(N3CCC(NC(=O)C4COc5ccccc5O4)C3)n2)cc(OC)c1OC (stereo not drawn) [GSK1379761]    11%
Cc1nn2c(=O)cc(N3CCOCC3)nc2n1Cc1cccc(Cl)c1Cl [GSK2342769]    19%

Exercise: Reported %Inh for CDKL2, given Cl.c1ccc(Cn2cnc3cc(Nc4ncnc5ccccc45)ccc32)cc1 [GW272142] ?
Solution: 9%

Exercise: Reported %Inh for CDKL2, given Nc1n[nH]c2ncc(-c3ccccc3)cc12 [SB-517081] ?
Solution: 34%

Exercise: Reported %Inh for CDKL2, given CN(C)c1cc(-c2ccc3c(N)n[nH]c3c2)nc(N)n1 [GSK2219329] ?
Solution: 11%

Exercise: Reported %Inh for CDKL2, given O=c1cc(N2CCOCC2)nc2n(Cc3ccc(F)c(Cl)c3)ccn12 [GSK2297099] ?
Solution: 8%
